These measurements were taken from patent US9290457B2.

- tested target: neutrophil elastase (Homo sapiens (Human), UniProt P08246)
- Sequence (P08246 30-247): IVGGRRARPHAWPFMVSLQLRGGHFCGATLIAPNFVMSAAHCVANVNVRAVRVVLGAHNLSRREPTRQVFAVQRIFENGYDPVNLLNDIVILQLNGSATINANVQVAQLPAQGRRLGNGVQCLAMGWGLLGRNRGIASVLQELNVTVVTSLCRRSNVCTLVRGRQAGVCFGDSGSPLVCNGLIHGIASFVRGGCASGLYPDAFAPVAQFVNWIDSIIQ
- assay summary: Human Neutrophil Elastase Assay
- Type: biochemical
- condition details: substrate MeOSuc-Ala-Ala-Pro-Val-AMC
pIC50: −log10 of the molar value.
property measured: pIC50

[
  {
    "molecule": "CC(=O)C1=C(C)N(c2cccc(C(F)(F)F)c2)C(=O)N(C)C1c1ccc(C#N)cc1C(=O)NC(C)(C)C#N (stereo not shown)",
    "assay value": 8.74
  },
  {
    "molecule": "CCOC(=O)C1=C(C)N(c2cccc(C(F)(F)F)c2)C(=O)N(C)C1c1ccc(C#N)cc1C(=O)N1CCC(O)CC1 (stereo not shown)",
    "assay value": 8.66
  }
]

====

- assay summary: Drug transport across human Caco-2 cells
- Format: in vitro ADME
- condition details: human, Caco-2; apical-to-basal, pH 7.2, 37° C.; read-out: PEAB
property measured: Papp A→B at 10 μM (nm/s)

A: CC(=O)C1=C(C)N(c2cccc(C(F)(F)F)c2)C(=O)N(C)C1c1ccc(C#N)cc1C(=O)NCC(C)(C)O (centres unmarked) [Example 1.22]
B: CC(=O)C1=C(C)N(c2cccc(C(F)(F)F)c2)C(=O)N(C)C1c1ccc(C#N)cc1-c1nnc(C)o1 (centres unmarked) [Example 8]
Prompt line: Which of the two items, A and B , has the greater recorded Papp A→B at 10 μM? Write down the label attached to your selection.
Response line: B

====

- tested target: neutrophil elastase (Homo sapiens (Human), UniProt P08246)
- assay summary: Human Neutrophil Elastase Assay
- condition details: substrate MeOSuc-Ala-Ala-Pro-Val-AMC
property measured: IC50 (nM)

Answered examples (2):
[
  {
    "compound": "CCOC(=O)C1=C(C)N(c2cccc(C(F)(F)F)c2)C(=O)N(C)C1c1ccc(C#N)cc1-c1ccco1 (stereo not shown)",
    "reading unit": "nM",
    "IC50": 3.7
  },
  {
    "compound": "CCOC(=O)C1=C(C)N(c2cccc(C(F)(F)F)c2)C(=O)N(C)C1c1ccc(C#N)cc1C(=O)N[C@H]1CCNC1 (stereo partly shown)",
    "reading unit": "nM",
    "IC50": 1.2
  }
]

P: CC(=O)C1=C(C)N(c2cccc(C(F)(F)F)c2)C(=O)N(C)C1c1ccc(C#N)cc1C(=O)N1Cc2ccncc2C1 (stereo not shown)
Q: CC(=O)C1=C(C)N(c2cccc(C(F)(F)F)c2)C(=O)N(C)C1c1ccc(C#N)cc1C(=O)N1CCN(C2CC2)CC1 (stereo not shown)
Prompt line: Smaller IC50 value? Options are P and Q Select an item and report its label.
Response line: P

====

- tested target: neutrophil elastase (Homo sapiens (Human))
- assay summary: Human Neutrophil Elastase Assay
- condition details: substrate MeOSuc-Ala-Ala-Pro-Val-AMC
pIC50: −log10 of the molar value.
Each entry below lists one item and its recorded pIC50 value.

[
  {
    "compound": "CCOC(=O)C1=C(C)N(c2cccc(C(F)(F)F)c2)C(=O)N(C)C1c1ccc(C#N)cc1C(=O)N1CCNCC1 (stereo not drawn) [Example 4]",
    "assay value": 8.85
  },
  {
    "compound": "CC(=O)C1=C(C)N(c2cccc(C(F)(F)F)c2)C(=O)N(C)C1c1ccc(C#N)cc1C(=O)NCc1cnoc1 (stereo not drawn) [Example 1.39]",
    "assay value": "> 9.00"
  },
  {
    "compound": "CC(=O)C1=C(C)N(c2cccc(C(F)(F)F)c2)C(=O)N(C)C1c1ccc(C#N)cc1C(=O)N1CC[C@@H](N)C1 (stereo partly drawn) [Example 2.10]",
    "assay value": "> 9.00"
  }
]

Prompt line: Recorded pIC50 for CCOC(=O)C1=C(C)N(c2cccc(C(F)(F)F)c2)C(=O)N(C)C1c1ccc(C#N)cc1C(=O)N1CCN(C(C)C)CC1 (stereo not drawn) [Example 3.45] with neutrophil elastase (Homo sapiens (Human)), please?
Response line: 8.74

Prompt line: Kindly state the measured pIC50 obtained for CCOC(=O)C1=C(C)N(c2cccc(C(F)(F)F)c2)C(=O)N(C)C1c1ccc(C#N)cc1C(=O)N[C@@H]1C[C@H]1N (stereo partly drawn) [Example 4.7] with neutrophil elastase (Homo sapiens (Human)).
Response line: > 9.00

Prompt line: What pIC50 appears in the records for this compound with neutrophil elastase (Homo sapiens (Human))? CCOC(=O)C1=C(C)N(c2cccc(C(F)(F)F)c2)C(=O)N(C)C1c1ccc(C#N)cc1C(=O)N1CC[C@@H](N(C)C)C1 (stereo partly drawn) [Example 3.37]
Response line: 8.55

Prompt line: Request - read-out pIC50 | tested on neutrophil elastase (Homo sapiens (Human)) | compound CC(=O)C1=C(C)N(c2cccc(C(F)(F)F)c2)C(=O)N(C)[C@@H]1c1ccc(C#N)cc1-c1ccc(=O)n(C)c1 [Example 16]
Response line: > 9.00

Prompt line: Enter reported pIC50 observed with neutrophil elastase (Homo sapiens (Human)) for CCOC(=O)C1=C(C)N(c2cccc(C(F)(F)F)c2)C(=O)N(C)C1c1ccc(C#N)cc1C(=O)NCCN(C)C (stereo not drawn) [Example 3.35]
Response line: > 9.00

Prompt line: Enter reported pIC50 observed with neutrophil elastase (Homo sapiens (Human)) for CC(=O)C1=C(C)N(c2cccc(C(F)(F)F)c2)C(=O)N(C)C1c1ccc(C#N)cc1C(=O)NCc1ncco1 (stereo not drawn) [Example 1.37]
Response line: > 9.00

Prompt line: Lab note: need pIC50 for CC(=O)C1=C(C)N(c2cccc(C(F)(F)F)c2)C(=O)N(C)C1c1ccc(C#N)cc1-c1ccc2c(cnn2C)c1 (stereo not drawn) [Example 5.12] on neutrophil elastase (Homo sapiens (Human)), anyone have it?
Response line: 8.52

Prompt line: Field: pIC50 (neutrophil elastase (Homo sapiens (Human))). Entry: CC(=O)C1=C(C)N(c2cccc(C(F)(F)F)c2)C(=O)N(C)C1c1ccc(C#N)cc1C(=O)NCC(F)F (stereo not drawn) [Example 1.17]
Response line: > 9.00

====

- System: human hepatocytes
- assay summary: Metabolic stability with human hepatocytes
- Format: in vitro ADME
- condition details: 1 μM compound, well stirred model
property measured: Qh (%)

I: CC(=O)C1=C(C)N(c2cccc(C(F)(F)F)c2)C(=O)N(C)C1c1ccc(C#N)cc1C(=O)NC1CC1 (centres unmarked) [Example 1.8]
II: CC(=O)C1=C(C)N(c2cccc(C(F)(F)F)c2)C(=O)N(C)C1c1ccc(C#N)cc1C(=O)NCC(C)(C)O (centres unmarked) [Example 1.22]
III: CC(=O)C1=C(C)N(c2cccc(C(F)(F)F)c2)C(=O)N(C)[C@@H]1c1ccc(C#N)cc1-c1ccc(=O)n(C)c1 [Example 16]
Prompt line: Please put the 3 compounds above in a list ordered by falling Qh. API: response body holds the labels in the requested order.
Response line: I, II, III
(I: 22%, II: 15%, III: 5%)

A: CNC(=O)c1cc(C#N)ccc1[C@@H]1C(C(C)=O)=C(C)N(c2cccc(C(F)(F)F)c2)C(=O)N1C [Example 13.1]
B: CC(=O)C1=C(C)N(c2cccc(C(F)(F)F)c2)C(=O)N(C)C1c1ccc(C#N)cc1C(=O)NCC#N (centres unmarked) [Example 1.6]
C: CC(=O)C1=C(C)N(c2cccc(C(F)(F)F)c2)C(=O)N(C)[C@@H]1c1ccc(C#N)cc1-c1ccn(C)c(=O)c1 [Example 17]
Prompt line: I would appreciate it if you could sort these 3 compounds by Qh, starting from the smallest number. Please list the labels according to the requested order.
Response line: C, A, B
(C: 6%, A: 16%, B: 25%)

====

- tested target: neutrophil elastase (Homo sapiens (Human))
- assay summary: Human Neutrophil Elastase Assay
- condition details: substrate MeOSuc-Ala-Ala-Pro-Val-AMC
pIC50: −log10 of the molar value.
property measured: pIC50

[
  {
    "compound": "CCOC(=O)C1=C(C)N(c2cccc(C(F)(F)F)c2)C(=O)N(C)C1c1ccc(C#N)cc1C(=O)NC1CCOC1 (stereo not shown)",
    "pIC50": 8.85
  },
  {
    "compound": "CC(=O)C1=C(C)N(c2cccc(C(F)(F)F)c2)C(=O)N(C)C1c1ccc(C#N)cc1C(=O)N1CC2CC1CN2 (stereo not shown)",
    "pIC50": 8.27
  }
]

P: CCOC(=O)C1=C(C)N(c2cccc(C(F)(F)F)c2)C(=O)N(C)C1c1ccc(C#N)cc1C(=O)N1CCOCC1 (stereo not shown)
Q: CCOC(=O)C1=C(C)N(c2cccc(C(F)(F)F)c2)C(=O)N(C)C1c1ccc(C#N)cc1C(=O)N[C@@H]1CCNC1 (stereo partly shown)
Prompt line: Smaller pIC50 value? Options are P and Q Output the label that corresponds to your choice.
Response line: P
(P: 8.70, Q: 8.96)

====

- tested target: cytochrome P450 2C9 (Homo sapiens (Human))
- Sequence (P11712 whole entry): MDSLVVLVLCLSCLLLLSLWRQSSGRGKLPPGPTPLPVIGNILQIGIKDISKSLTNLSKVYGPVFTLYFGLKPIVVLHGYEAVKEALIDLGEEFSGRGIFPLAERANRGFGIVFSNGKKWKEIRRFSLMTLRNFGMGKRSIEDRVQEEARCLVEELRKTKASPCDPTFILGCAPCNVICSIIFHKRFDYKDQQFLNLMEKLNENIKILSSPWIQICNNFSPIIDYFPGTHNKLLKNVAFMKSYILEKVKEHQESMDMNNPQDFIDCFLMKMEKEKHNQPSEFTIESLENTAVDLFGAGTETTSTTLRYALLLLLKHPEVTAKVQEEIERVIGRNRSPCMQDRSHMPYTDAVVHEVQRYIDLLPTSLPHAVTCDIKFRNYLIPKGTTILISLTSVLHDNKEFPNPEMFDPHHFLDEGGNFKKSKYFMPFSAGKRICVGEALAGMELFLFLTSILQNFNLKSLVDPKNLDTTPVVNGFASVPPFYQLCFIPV
- assay summary: Cytochrome P450 2C9 inhibition
- Assay type: in vitro ADME
- condition details: human liver microsomes, Diclofenac hydroxylation; read-out: IC50 CYP2C9 inhibition
pIC50: −log10 of the molar value.
property measured: pIC50

Prompt line: Please report the recorded pIC50 for CNC(=O)c1cc(C#N)ccc1[C@@H]1C(C(C)=O)=C(C)N(c2cccc(C(F)(F)F)c2)C(=O)N1C .
Response line: < 4.30
